- Type: physicochemical, mice
- DETAILS: stability in mice plasma/blood QC sample, −80°C, spiked concentration 62.5
OBSERVABLE: Accuracy (RE, %) Frozen for 30 days

- O=C(O)[C@H]1O[C@@H](Oc2cc3oc(-c4ccccc4)cc(=O)c3c(O)c2O)[C@H](O)[C@@H](O)[C@@H]1O: 14.1
- COc1ccc(-c2coc3cc(O)ccc3c2=O)cc1: 13
- CCCCC[C@H](O)CC(=O)CCc1ccc(O)c(OC)c1: −12.1
- O=C1C[C@@H](c2ccc(O[C@@H]3O[C@H](CO)[C@@H](O)[C@H](O)[C@H]3O)cc2)Oc2cc(O)ccc21: 13.8
- COc1cc(CCC(C)=O)ccc1O: −0.9
- CC(C)=CCC[C@](C)(O[C@@H]1O[C@H](CO)[C@@H](O)[C@H](O)[C@H]1O)[C@H]1CC[C@]2(C)[C@@H]1[C@H](O)C[C@@H]1[C@@]3(C)CC[C@H](O)C(C)(C)[C@@H]3[C@@H](O[C@@H]3O[C@H](CO)[C@@H](O)[C@H](O)[C@H]3O[C@@H]3O[C@@H](C)[C@H](O)[C@@H](O)[C@H]3O)C[C@]12C [Re, ginsenoside Re]: 9.7
- CC1(C)[C@@H](O)CC[C@]2(C)[C@H]3C(=O)C=C4[C@@H]5C[C@@](C)(C(=O)O)CC[C@]5(C)CC[C@@]4(C)[C@]3(C)CC[C@@H]12: 14.0
- O=c1cc(-c2ccccc2)oc2cc(O)c(O)c(O)c12: −14.5
- COc1c(O)cc(O)c2c(=O)cc(-c3ccccc3)oc12: 15

----------
- Type: physicochemical, mice
- DETAILS: stability, extracted QC sample in auto-sampler, spiked concentration 62.5
Param threshold (10%) applies to Accuracy (RE, %) 4°C for 24 h; output t when value >= threshold, f when value < threshold.

* COc1c(O[C@@H]2O[C@H](C(=O)O)[C@@H](O)[C@H](O)[C@H]2O)cc(O)c2c(=O)cc(-c3ccccc3)oc12 [Wogonoside, wogonoside] | t
* CC(C)=CCC[C@](C)(O[C@@H]1O[C@H](CO)[C@@H](O)[C@H](O)[C@H]1O)[C@H]1CC[C@]2(C)[C@@H]1[C@H](O)C[C@@H]1[C@@]3(C)CC[C@H](O)C(C)(C)[C@@H]3[C@@H](O[C@@H]3O[C@H](CO)[C@@H](O)[C@H](O)[C@H]3O[C@@H]3O[C@@H](C)[C@H](O)[C@@H](O)[C@H]3O)C[C@]12C [Re, ginsenoside Re] | t
* COc1c(O)cc(O)c2c(=O)cc(-c3ccccc3)oc12 | t
* O=c1c(O)c(-c2ccc(O)c(O)c2)oc2cc(O)cc(O)c12 | f
* O=c1cc(-c2ccccc2)oc2cc(O)c(O)c(O)c12 | f
* CC(C)=CCC[C@](C)(O[C@@H]1O[C@H](CO)[C@@H](O)[C@H](O)[C@H]1O)[C@H]1CC[C@]2(C)[C@@H]1[C@H](O)C[C@@H]1[C@@]3(C)CC[C@H](O[C@@H]4O[C@H](CO)[C@@H](O)[C@H](O)[C@H]4O[C@@H]4O[C@H](CO)[C@@H](O)[C@H](O)[C@H]4O)C(C)(C)[C@@H]3CC[C@]12C [Rd, Ginsenoside Rd] | t
* CC1(C)[C@@H](O)CC[C@]2(C)[C@H]3C(=O)C=C4[C@@H]5C[C@@](C)(C(=O)O)CC[C@]5(C)CC[C@@]4(C)[C@]3(C)CC[C@@H]12 | t

----------
- Type: physicochemical, mice
- DETAILS: stability in mice plasma/blood QC sample, spiked concentration 6.25
OBSERVABLE: Accuracy (RE, %) 25°C for 6 h

- CC(C)=CCC[C@](C)(O)[C@H]1CC[C@]2(C)[C@@H]1[C@H](O)C[C@@H]1[C@@]3(C)CC[C@H](O[C@@H]4O[C@H](CO)[C@@H](O)[C@H](O)[C@H]4O[C@@H]4O[C@H](CO)[C@@H](O)[C@H](O)[C@H]4O)C(C)(C)[C@@H]3CC[C@]12C [Rg3, ginsenoside Rg3]: 9.2
- C[C@@H]1O[C@@H](OC[C@H]2O[C@@H](Oc3c(-c4ccc(O)c(O)c4)oc4cc(O)cc(O)c4c3=O)[C@H](O)[C@@H](O)[C@@H]2O)[C@H](O)[C@H](O)[C@H]1O: 3.1
- C[C@H]1O[C@@H](O[C@H]2CC[C@@]3(C)[C@@H](CC[C@]4(C)[C@@H]3C=C[C@]35OC[C@@]6(CCC(C)(C)C[C@H]63)[C@H](O)C[C@]54C)[C@]2(C)CO)[C@H](O)[C@@H](O[C@@H]2O[C@H](CO)[C@@H](O)[C@H](O)[C@H]2O)[C@H]1O: −13.0
- C[C@H]1O[C@@H](O[C@H]2CC[C@@]3(C)[C@@H](CC[C@]4(C)[C@@H]3C=C[C@]35OC[C@@]6(CCC(C)(C)C[C@H]63)[C@@H](O)C[C@]54C)[C@]2(C)CO)[C@H](O)[C@@H](O[C@@H]2O[C@H](CO)[C@@H](O)[C@H](O)[C@H]2O)[C@H]1O: −1.5

----------
- Assay type: physicochemical, mice
- DETAILS: stability in mice plasma/blood QC sample, −80°C, spiked concentration 0.488
OBSERVABLE: Accuracy (RE, %) Frozen for 30 days

• CC(C)=CCC[C@](C)(O[C@@H]1O[C@H](CO)[C@@H](O)[C@H](O)[C@H]1O)[C@H]1CC[C@]2(C)[C@@H]1[C@H](O)C[C@@H]1[C@@]3(C)CC[C@H](O[C@@H]4O[C@H](CO)[C@@H](O)[C@H](O)[C@H]4O[C@@H]4O[C@H](CO)[C@@H](O)[C@H](O)[C@H]4O)C(C)(C)[C@@H]3CC[C@]12C [Rd, Ginsenoside Rd] = 11.6%
• COc1c(O[C@@H]2O[C@H](C(=O)O)[C@@H](O)[C@H](O)[C@H]2O)cc(O)c2c(=O)cc(-c3ccccc3)oc12 [Wogonoside, wogonoside] = −10.9%
• CC(C)=CCC[C@](C)(O[C@@H]1O[C@H](CO)[C@@H](O)[C@H](O)[C@H]1O)[C@H]1CC[C@]2(C)[C@@H]1[C@H](O)C[C@@H]1[C@@]3(C)CC[C@H](O)C(C)(C)[C@@H]3[C@@H](O[C@@H]3O[C@H](CO)[C@@H](O)[C@H](O)[C@H]3O)C[C@]12C [Rg1, ginsenoside Rg1] = 7.2%
• O=C1C[C@@H](c2ccc(O[C@@H]3O[C@H](CO)[C@@H](O)[C@H](O)[C@H]3O)cc2)Oc2cc(O)ccc21 = 13.9%
• CC(C)=CCC[C@](C)(O)[C@H]1CC[C@]2(C)[C@@H]1[C@H](O)C[C@@H]1[C@@]3(C)CC[C@H](O[C@@H]4O[C@H](CO)[C@@H](O)[C@H](O)[C@H]4O[C@@H]4O[C@H](CO)[C@@H](O)[C@H](O)[C@H]4O)C(C)(C)[C@@H]3CC[C@]12C [Rg3, ginsenoside Rg3] = 8.0%

----------
- Assay type: physicochemical, mice
- DETAILS: stability in mice plasma/blood QC sample, spiked concentration 500
Accuracy (RE, %) 25°C for 6 h for assorted compounds
OBSERVABLE: Accuracy (RE, %) 25°C for 6 h

* O=c1cc(-c2ccccc2)oc2cc(O)c(O)c(O)c12 | 0.7
* O=c1c(O)c(-c2ccc(O)c(O)c2)oc2cc(O)cc(O)c12 | 10.1
* O=C1C[C@@H](c2ccc(O[C@@H]3O[C@H](CO)[C@@H](O)[C@H](O)[C@H]3O)cc2)Oc2cc(O)ccc21 | 12.7
* COc1cc(CCC(C)=O)ccc1O | −14.6
* COc1ccc(-c2coc3cc(O)ccc3c2=O)cc1 | −10.9
* O=C(O)[C@H]1O[C@@H](Oc2cc3oc(-c4ccccc4)cc(=O)c3c(O)c2O)[C@H](O)[C@@H](O)[C@@H]1O | 1.1
* CC(C)=CCC[C@](C)(O)[C@H]1CC[C@]2(C)[C@@H]1[C@H](O)C[C@@H]1[C@@]3(C)CC[C@H](O[C@@H]4O[C@H](CO)[C@@H](O)[C@H](O)[C@H]4O[C@@H]4O[C@H](CO)[C@@H](O)[C@H](O)[C@H]4O)C(C)(C)[C@@H]3CC[C@]12C [Rg3, ginsenoside Rg3] | −4.3
* COc1c(O)cc(O)c2c(=O)cc(-c3ccccc3)oc12 | 3.1

----------
- Type: physicochemical, mice
- DETAILS: stability, extracted QC sample in auto-sampler, spiked concentration 500
OBSERVABLE: Accuracy (RE, %) 4°C for 24 h

* CC(C)=CCC[C@](C)(O[C@@H]1O[C@H](CO)[C@@H](O)[C@H](O)[C@H]1O)[C@H]1CC[C@]2(C)[C@@H]1[C@H](O)C[C@@H]1[C@@]3(C)CC[C@H](O)C(C)(C)[C@@H]3[C@@H](O[C@@H]3O[C@H](CO)[C@@H](O)[C@H](O)[C@H]3O[C@@H]3O[C@@H](C)[C@H](O)[C@@H](O)[C@H]3O)C[C@]12C [Re, ginsenoside Re] | 9.7
* CC(C)=CCC[C@](C)(O[C@@H]1O[C@H](CO)[C@@H](O)[C@H](O)[C@H]1O)[C@H]1CC[C@]2(C)[C@@H]1[C@H](O)C[C@@H]1[C@@]3(C)CC[C@H](O)C(C)(C)[C@@H]3[C@@H](O[C@@H]3O[C@H](CO)[C@@H](O)[C@H](O)[C@H]3O)C[C@]12C [Rg1, ginsenoside Rg1] | 12.12
* COc1c(O)cc(O)c2c(=O)cc(-c3ccccc3)oc12 [Wogonin, wogonin] | 13.5
* O=c1cc(-c2ccccc2)oc2cc(O)c(O)c(O)c12 [Baicalein, baicalein] | 13.1
* CC(C)=CCC[C@](C)(O[C@@H]1O[C@H](CO)[C@@H](O)[C@H](O)[C@H]1O)[C@H]1CC[C@]2(C)[C@@H]1[C@H](O)C[C@@H]1[C@@]3(C)CC[C@H](O[C@@H]4O[C@H](CO)[C@@H](O)[C@H](O)[C@H]4O[C@@H]4O[C@H](CO)[C@@H](O)[C@H](O)[C@H]4O)C(C)(C)[C@@H]3CC[C@]12C [Rd, Ginsenoside Rd] | 12.3
* COc1ccc(-c2coc3cc(O)ccc3c2=O)cc1 [Formononetin, formononetin] | 5
